Data credit: the supplement of paper PMC10567573

B1: CLCN6 (parent)
chain: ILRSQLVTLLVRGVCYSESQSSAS

- Variants of: B1
- procedure.summary: protein stability index of a GFP-peptide fusion (GPS, HEK-293T) (PSI 1-6); higher = more stable;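 further: lentivirally expressed fusions sorted by FACS into six bins by GFP to DsRed ratio, PSI derived from sequencing read proportions per bin multiplied by bin number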
- condition.label: c terminus: a fixed tail appended
# if value of protein stability index reaches 3, tag satisfied; if it stays below, tag not satisfied

For orientation, consider the following solved cases.
variant.key	label.value
S17K	not satisfied
R3K	satisfied
Q5C	satisfied
R12V	satisfied
S4L	not satisfied
Q20K	satisfied
V7N	not satisfied
S22K	satisfied

Test whether the variant "V11E" records protein stability index of 3 or higher.
not satisfied

Ok, now "T8S"
not satisfied

Then what about the variant "S22N" ?
not satisfied

Next variant up: "L6E"
not satisfied

Also check "V11C"
not satisfied

One more variant: "Y16R"
satisfied

Similarly, "S21I" ?
not satisfied
